TARGET SYSTEM: Zif268 wildtype (three zinc fingers, phage displayed) (Mus musculus, UniProt P08046 P08046:333-421)
TEST NAME: ELONA; apparent Kd, phage ELISA, PBS/Zn, RT
EXPERIMENTAL ENDPOINT: Kd (nM)
Record the value in nM, omitting the unit from your answer.

q: Bench note: what Kd did Zif268 site TAG (dsDNA, [none]) DNA 1: TATATAGCGTAGGCGTATATATCAAGTCAATCGGTCC DNA 2: GGACCGATTGACTTGATATATACGCCTACGCTATATA show?
a: 6.7

q: One more binder: Zif268 site CAG (dsDNA, [none]) DNA 1: TATATAGCGCAGGCGTATATATCAAGTCAATCGGTCC DNA 2: GGACCGATTGACTTGATATATACGCCTGCGCTATATA
a: 380

q: One more binder: Zif268 site AGG (dsDNA, [none]) DNA 1: TATATAGCGAGGGCGTATATATCAAGTCAATCGGTCC DNA 2: GGACCGATTGACTTGATATATACGCCCTCGCTATATA
a: 54

q: One more binder: Zif268 site TTG (dsDNA, [none]) DNA 1: TATATAGCGTTGGCGTATATATCAAGTCAATCGGTCC DNA 2: GGACCGATTGACTTGATATATACGCCAACGCTATATA
a: 71
